Data provenance is patent US10961215B2.

# Assayed target: GST tagged LXRbeta LBD (ligand binding domain) (Homo sapiens)
# Construct: purchased Invitrogen pv4658.pps
# Sequence (P55055 222-460 limits assumed): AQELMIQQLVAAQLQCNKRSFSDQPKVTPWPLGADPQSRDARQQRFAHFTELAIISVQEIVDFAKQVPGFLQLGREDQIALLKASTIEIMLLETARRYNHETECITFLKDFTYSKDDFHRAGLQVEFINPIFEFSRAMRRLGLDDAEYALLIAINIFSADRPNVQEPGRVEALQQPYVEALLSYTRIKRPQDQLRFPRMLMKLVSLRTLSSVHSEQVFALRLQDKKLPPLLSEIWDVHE
# Assay summary: LanthaScreen TR-FRET Liver X Receptor Coactivator Assay, LXR beta-LBD (co-activator recruitment; IP and % Emax relative to T0901317)
# Assay type: biochemical
# Setup conditions: efficacy at max dose in relation to reference T0901317, LXR beta-LBD
Assign LXR beta actiivty at max dose (%) to each entry below.
Answer with a number only, understood to be in %.

Exam item: Fill in the blank: the reported LXR beta actiivty at max dose (%) of CN(C)C(=O)c1ccc(N2CCC(CCCN(C)C(=O)[C@](O)(c3ccccc3)C(F)(F)F)CC2)nc1Cl [Example 1-26] is ____.
Marked response: 51

Exam item: Fill in the blank: the reported LXR beta actiivty at max dose (%) of CN(C)C(=O)c1ccc(N2CCC(CCCN(C)C(=O)C(O)(c3ccccc3)C(F)(F)F)CC2)cc1Cl (single isomer, unassigned) [Example 4-6] is ____.
Marked response: 73

Exam item: Fill in the blank: the reported LXR beta actiivty at max dose (%) of CN(C)C(=O)c1ccc(N2CCC(CCCN(C)C(=O)[C@](O)(c3ccccc3)C(F)(F)F)CC2)nc1Cl [Example 1-1] is ____.
Marked response: 78

Exam item: Fill in the blank: the reported LXR beta actiivty at max dose (%) of CN(C)C(=O)c1ccc(N2CCC(CCCN(C)C(=O)C(O)(c3ccccc3)C(F)(F)F)CC2)cc1Cl (single isomer, unassigned) [Example 4-7] is ____.
Marked response: 48
